# Measured On: human NTCP (SLC10A1) (Homo sapiens)
# Construct: host or cells: HEK293 TransportoCells
# Sequence (Q14973 1-349): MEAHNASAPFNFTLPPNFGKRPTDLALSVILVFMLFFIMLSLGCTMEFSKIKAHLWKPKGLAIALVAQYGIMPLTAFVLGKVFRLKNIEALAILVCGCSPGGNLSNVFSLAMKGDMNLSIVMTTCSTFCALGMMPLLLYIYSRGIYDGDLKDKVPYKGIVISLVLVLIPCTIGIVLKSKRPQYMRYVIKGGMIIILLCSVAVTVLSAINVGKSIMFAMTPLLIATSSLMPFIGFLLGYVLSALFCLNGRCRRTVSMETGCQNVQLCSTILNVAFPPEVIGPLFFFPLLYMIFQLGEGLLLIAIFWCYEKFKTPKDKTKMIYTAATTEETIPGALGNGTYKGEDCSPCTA
# Experiment Summary: NTCP inhibition in transporter-expressing HEK293 cells, [3H]-taurocholic acid uptake (IC50 determination)
# Format: cell-based
# Condition Context: NTCP-mediated transport of [3H]-taurocholic acid (1 μM), HEK293; mean (±SD) of three occasions; read-out: IC50 mean (NTCP)
Outcome Measure: IC50 (µM)
Your answer should be a plain number; it is taken to be in µM.

Item: Cc1cccc(C)c1OCC(=O)N[C@@H](Cc1ccccc1)[C@@H](O)C[C@H](Cc1ccccc1)NC(=O)[C@H](C(C)C)N1CCCNC1=O [lopinavir] | IC50: 20.3

Just so you know, measured IC50 for COC(=O)N[C@H](C(=O)N[C@@H](Cc1ccccc1)[C@@H](O)CN(Cc1ccc(-c2ccccn2)cc1)NC(=O)[C@@H](NC(=O)OC)C(C)(C)C)C(C)(C)C [atazanavir] came out at 65.6
